- Particulars: buffer; pH 7.4; 200.0 µM
This section presents compounds with their documented solubility kinetic values.
Reported property: solubility kinetic

Compound	Observed value
NC(=O)C1CCN(CCS(=O)(=O)c2ccc(Cl)cc2)CC1	> 49.6 µg/mL
Cc1cc(C(=O)CSc2nc(N)cc(N)n2)c(C)n1CC1CCCO1 (stereo not drawn)	> 54.2 µg/mL
N#CC(C#N)=Cc1cnc(N2CCN(c3ccccc3)CC2)s1	< 0.1 µg/mL

---

- Particulars: buffer; pH 7.4; 200.0 µM
Label YES when solubility kinetic is at or above 0.01 mg/mL; otherwise label NO.

Molecule	Discrete label
O=C(/C=C/c1ccc2c(c1)OCO2)N1CCCCC1	YES
Cc1nc(-c2cc(-c3nc(-c4ccc(C(C)(C)C)cc4)no3)no2)cs1	NO
O=C(O)c1ccc(S(=O)(=O)NCC2CCCCC2)cc1	YES
CC(C)c1ccccc1NC(=O)C1CC(=O)N(C2CCCC2)C1 (configuration not stated)	YES
O=C1OCC2=C1C(c1ccc(F)cc1)CC(=O)N2c1ccccc1 (configuration not stated)	YES
Cc1csc(NC(=O)c2cc(=O)[nH]c3ccccc23)n1	YES
CCOP(=O)(c1ccc(N(C)C)cc1)C(O)c1cccnc1 (configuration not stated)	YES
CCC(C(=O)O)n1cnc2scc(-c3ccc(C)c(C)c3)c2c1=O (configuration not stated)	YES
N#Cc1cccnc1N1CCN(C(=O)COCC(=O)O)CC1	YES
CCc1ccc(NS(=O)(=O)c2ccc3oc(=O)ccc3c2)cc1	YES
Cc1cccc(C(C)C)c1NC(=O)c1c(-c2ccccc2)noc1C	NO
O=C(CC1CCCC1)Nc1ccc(Cl)c(S(=O)(=O)N2CCOCC2)c1	YES
O=C(Nc1ccc(Cn2ccnc2)cc1)c1cccc(C(F)(F)F)c1	NO
CN(CC(=O)NC1CCCC1)S(=O)(=O)c1cnc[nH]1	YES
Cc1ccc(CSCC(=O)Nc2ccccc2C(=O)O)cc1	YES
Br.N=C(N)SCCc1cccc(CCSC(=N)N)c1	YES
Cc1ccc(S(=O)(=O)N2CCN(c3ncccn3)CC2)c(C)c1	NO

---

- Particulars: buffer; pH 7.4; 200.0 µM
In this section we review reported solubility kinetic values for a set of molecules.

Molecule	solubility kinetic
CC(C)c1ccc(C(=O)NCCCNC(=O)c2cnccn2)cc1	> 49 µg/mL
CCOC(=O)N1CCC(NC(=O)CCc2ccccc2)CC1	> 45.7 µg/mL
Cc1c(C(=O)NC2CC2)oc2ccccc12	> 32.3 µg/mL
Fc1ccc(-n2cc(-c3ccccc3)[n+]3c2SCC3)cc1.[Br-]	> 56.6 µg/mL
Cc1ccccc1CC(=O)N1CC(C)OC(C)C1 (stereo not drawn)	> 37.1 µg/mL
Nn1c(SCC(=O)NC2CCS(=O)(=O)C2)nnc1-c1ccco1 (stereo not drawn)	> 53.6 µg/mL
COc1ccc(NC(=S)Nc2cccc(C(C)=O)c2)cc1OC	> 49.6 µg/mL
COc1ccc(CCNS(=O)(=O)c2cn(C)nc2C)cc1	> 46.4 µg/mL
COc1ccccc1NS(=O)(=O)c1cccc(NS(=O)(=O)c2ccc(Cl)c(C(=O)O)c2)c1	> 74.5 µg/mL
COC(=O)c1c(C)nc(C)c(C(=O)OC)c1-c1ccc(OC)cc1	> 49.4 µg/mL
CC1(C)OC(=O)C(=CNC(CO)C(=O)O)C(=O)O1 (stereo not drawn)	> 38.9 µg/mL
O=C(NNC(=O)c1ccccc1-n1cccc1)c1cncc(Br)c1	> 57.8 µg/mL
CCN(CC)CCn1c(-c2ccc(C)cc2)nc(=S)c2c1CC(C)(C)OC2	> 57.8 µg/mL

---

- Particulars: buffer; pH 7.4; 200.0 µM
Reported property: solubility kinetic

Smiles code	Observed value
CCOc1ncccc1C(=O)Nc1ccccc1N1CCOCC1	> 49.1 µg/mL
O=C(CSc1nc2ccccc2o1)N1CCOCC1	> 41.7 µg/mL
O=S(=O)(c1ccc(F)cc1)N1CCCC1	> 34.4 µg/mL

---

Readings of solubility kinetic for the listed compounds
- Particulars: buffer; pH 7.4; 200.0 µM

Smiles code	solubility kinetic
O=C(CSc1nc2ccccc2o1)N/N=C/c1ccc(C(=O)O)cc1	> 53.3 µg/mL
COc1cccc(NC(=O)CN(C)CC(=O)NCc2ccc(F)cc2)c1	> 53.9 µg/mL
N#Cc1c(Nc2ccc(Cl)cc2)s[nH]c1=O	> 37.8 µg/mL

---

- Particulars: buffer; pH 7.4; 200.0 µM

Molecule	solubility kinetic
CCOc1ccccc1NC(=O)C(c1ccccc1)N1CCN(CC(=O)N2CCCC2)CC1 (stereo not drawn)	> 67.6 µg/mL
Cc1cc(C)nc(SCCC(=O)Nc2ccc(F)cc2)n1	> 45.8 µg/mL
Cn1cc(-c2ccccc2C(=O)O)c(=O)c2ccccc21	> 41.9 µg/mL

---

# maps each entry to its solubility kinetic
- Particulars: buffer; pH 7.4; 200.0 µM

Smiles code	solubility kinetic
O=C(NCc1cccnc1)c1ccc([N+](=O)[O-])cc1	> 38.6 µg/mL
Br.N=C1CCCN1CC(=O)c1cccs1	39 µg/mL
Cc1cc(C)n(-c2c(C)[nH]c3ccccc23)n1	> 33.8 µg/mL

---

Consider the following compounds and their measured solubility kinetic readings.
- Particulars: buffer; pH 7.4; 200.0 µM
Reported property: solubility kinetic (µg/mL)

Compound	Reported property	Modifier sign	Observed value
O=C(NC1CCN(Cc2ccc(Cl)c(Cl)c2)CC1)c1ccccc1	solubility kinetic	=	1.9
O=C(CNC(=O)c1ccc(Br)cc1)NCc1cccnc1	solubility kinetic	=	49.3
CCC1(C)Cc2ccccc2-c2nc(NCCCO)[nH]c(=O)c21 (stereo not given)	solubility kinetic	=	44
COc1ccc2oc(C(=O)NCc3ccco3)c(C)c2c1	solubility kinetic	=	31.6
Cc1cccc(C(=O)NCCCn2ccnc2)c1C	solubility kinetic	=	37.6
COc1cccc(NC(=O)CCN2CCOCC2)c1.Cl	solubility kinetic	>	45.1
O=c1cc(O)c2sc3nc(C(F)(F)F)c4c(c3c2[nH]1)CCCCC4	solubility kinetic	>	53.2
CC12CCC(=O)N1C(C(=O)N1CCN(c3ccc([N+](=O)[O-])cc3)CC1)CS2 (stereo not given)	solubility kinetic	=	30.7
CCC(OC(=O)c1nsc(Cl)c1Cl)C(=O)NCCOC (stereo not given)	solubility kinetic	>	51.2
NC(=O)c1sc2nc3c(cc2c1N)CCCCCC3	solubility kinetic	=	22.3
COc1ccc(-c2csc(Nc3ncccn3)n2)cc1C	solubility kinetic	<	0.1
O=C(NCc1cccnc1)/C(=C/c1ccccc1)NC(=O)c1ccccc1	solubility kinetic	>	53.6
CCOCC(=O)OCC(=O)NC12CC3CC(CC(C3)C1)C2	solubility kinetic	>	44.3
COc1cc(/C(O)=C(\C#N)c2nc3ccccc3[nH]2)cc(OC)c1OC	solubility kinetic	=	7.1
CCCCN(C(=O)C1CC(=O)N(c2ccc3c(c2)OCCO3)C1)c1c(N)n(CCC)c(=O)[nH]c1=O (stereo not given)	solubility kinetic	>	72.8

---

- Particulars: buffer; pH 7.4; 200.0 µM
Please enter class 1 where solubility kinetic is greater than or equal to 0.03 mg/mL, and class 0 where it is lower.

Compound	Discrete label
O=C1/C(=C/c2cccnc2)SC(=S)N1CCc1ccccc1	class 0
Nn1c(SCC(=O)NCCc2ccc(S(N)(=O)=O)cc2)nnc1C1CCCCC1	class 1
O=C(Cc1ccccc1[N+](=O)[O-])NC1CC2CCC1C2 (stereo not given)	class 1
CC(OC(=O)[C@@H](NC(=O)c1ccco1)C(C)C)C(=O)Nc1ncc(Cl)cc1Cl (stereo not given in full)	class 1
Cc1nc2ccccc2c(=O)n1-c1ccc(Br)cn1	class 1
COc1ccc(NC(=O)CCSc2nc(C)cs2)cc1	class 1
O=C(Nc1cccc(S(=O)(=O)NCc2ccco2)c1)c1cccc(Cl)c1	class 0
CN(C(=O)COC(=O)c1ccccc1C(=O)c1ccccc1)c1ccccc1	class 1
CC(C)C1N(C(=O)N(C)C)CCN1S(=O)(=O)c1ccccc1 (stereo not given)	class 1
CC1(C)SC[C@H](C(=O)Nc2cccc(Cl)c2)N1C=O	class 1
CCCN1CCC(NC(=O)C2CC=CCC2C(=O)O)CC1 (stereo not given)	class 1
Cc1cccc(NC(=O)CCn2c(=O)oc3ccccc32)c1	class 1
O/N=C/c1ccnc(SCc2ccccc2)n1	class 1
CC(C)[C@H](NS(=O)(=O)c1ccccc1)C(=O)OCC(=O)NC1CCCCC1	class 1
CC(C)[C@H](NC(=O)c1ccccc1)C(=O)NC1=NCCS1	class 1
O=C(NCCc1ccccc1)Oc1ccc(Cl)cc1	class 0
Cc1cc(C)c2oc(=O)cc(CN3CCC(C)CC3)c2c1	class 0
COc1ccc(Cl)cc1C(=O)NCC(c1ccco1)N(C)C (stereo not given)	class 1
COCCNC(=O)/C(C#N)=C/c1ccccc1Br	class 1
O=C(Cc1ccc(Cl)cc1)NCCc1cnc[nH]1	class 1
O=C(NC1CCCCC1)c1ccc(-c2ccc(Cl)cc2)o1	class 0
CCCOc1ccc(C(=O)NCCN2CCOCC2)cc1.Cl	class 1
O=C(CC(SCCO)c1ccc([N+](=O)[O-])cc1)c1ccco1 (stereo not given)	class 0
Cc1cc2occ(CC(=O)NC3(C)CCS(=O)(=O)C3)c2cc1C (stereo not given)	class 1
O=C1/C(=C/c2cccc(O)c2)SC(=S)N1CC1CCCO1 (stereo not given)	class 0
CCCCN(C(=O)CSc1nc(CCC)cc(=O)[nH]1)c1c(N)n(Cc2ccccc2)c(=O)[nH]c1=O	class 1
O=C(Nc1ccc(C(=O)O)cc1)Nc1ccc([N+](=O)[O-])cc1	class 1
Cc1onc(-c2ccccc2)c1CNC(=O)Nc1ccc(F)cc1F	class 0
Cn1c(N)c(C(=O)COC(=O)c2ccc(-c3ccccc3)cc2)c(=O)n(C)c1=O	class 0
CS(=O)(=O)c1ccc2nc(NC(=O)Nc3ccccc3F)sc2c1	class 0
COc1ccc(F)cc1S(=O)(=O)NCCN1CCOCC1	class 1
CC(=O)Cc1nsc(Nc2ccc(F)cc2)n1	class 1
CC1CCN(C(=O)COc2cccc3c2CCN(Cc2ccccc2)C3=O)CC1	class 1
Cc1ccsc1/C=N/NC(=O)C1CC(=O)N(c2ccc(F)cc2)C1 (stereo not given)	class 1
CCc1ccc(NC(=O)CCC(=O)c2ccc(C)cc2)cc1	class 0
O=S(=O)(Cc1ccc(Cl)cc1)N1CCCCCC1	class 0
O=C(NCc1ccc(F)cc1)Nc1ccc(Cl)cc1	class 0
Cc1cc(C)cc(NC(=O)N2C3CCCC2CC(NC(=O)C2CC2)C3)c1 (stereo not given)	class 0

Ref: PubChem BioAssay AID1996
